# assay remarks: physchem
# measurement parameters: PAMPA
# Description: Passive permeability of the compound by PAMPA
readout kind: Papp

* Cc1cc(OCCCc2c3n(c4c(-c5c(C)nn(C)c5C)c(Cl)ccc24)CCCN(c2cccc4c(C(=O)O)cccc24)C3=O)cc(C)c1Cl | 4.4 ×10⁻⁶ cm/s
* Cc1cc(OCCCc2c(C(=O)NCc3cc(C(=O)O)ccn3)[nH]c3c(-c4c(C)nn(C)c4C)cccc23)cc(C)c1Cl | < 1.2 ×10⁻⁶ cm/s
* Cc1cc(OCCCc2c(C(=O)Nc3ccc(C(=O)O)cc3)[nH]c3c(-c4c(C)nn(C)c4C)c(Cl)ccc23)cc(C)c1Cl | 1.2 ×10⁻⁶ cm/s
* Cc1cc(OCCCc2c(C(=O)Nc3cccc(C(=O)O)n3)[nH]c3c(-c4c(C)nn(C)c4C)c(Cl)ccc23)cc(C)c1Cl | < 1.6 ×10⁻⁶ cm/s
* Cc1cc(OCCCc2c3n(c4c(-c5c(C)nn(C)c5C)c(Cl)ccc24)CCCN(c2cccc(C(=O)O)c2)C3=O)cc(C)c1Cl | 307 ×10⁻⁶ cm/s
* Cc1cc(OCCCc2c3n(c4c(-c5c(C)nn(C)c5C)c(Cl)ccc24)CCCN(c2cc(C(=O)O)cc4c2OCO4)C3=O)cc(C)c1Cl | 63 ×10⁻⁶ cm/s
* Cc1cc(OCCCc2c3n(c4c(-c5c(C)nn(C)c5C)c(Cl)ccc24)CCCN(Cc2cccc(C(=O)O)c2)C3=O)cc(C)c1Cl | 143 ×10⁻⁶ cm/s

Measured values drawn from ChEMBL document CHEMBL4020825 for this set.
